tested on: guinea pig ileum (GPI); assay: Opioid agonist activity in electrically stimulated guinea pig ileum (GPI); assay type: cell-based; settings: Cavia porcellus, agonist
reported_endpoint: IC50

Tell me its IC50 given Oc1ccc2c3c1O[C@H]1c4ncc(-c5ccc(Cl)cc5)cc4C[C@@]4(O)[C@@H](C2)N(CC2CC2)CC[C@]314 [Compound 6d] as the entry.
0.163 µM

----------
biological target: UniProt:P33533; details: read-out: K1 (nM) ± SEM δ; displacement of [3H]DADLE (1.3-2.0 nM), rat brain membranes, 100 nM DAMGO to block μ sites
Sequence (P33533 whole entry): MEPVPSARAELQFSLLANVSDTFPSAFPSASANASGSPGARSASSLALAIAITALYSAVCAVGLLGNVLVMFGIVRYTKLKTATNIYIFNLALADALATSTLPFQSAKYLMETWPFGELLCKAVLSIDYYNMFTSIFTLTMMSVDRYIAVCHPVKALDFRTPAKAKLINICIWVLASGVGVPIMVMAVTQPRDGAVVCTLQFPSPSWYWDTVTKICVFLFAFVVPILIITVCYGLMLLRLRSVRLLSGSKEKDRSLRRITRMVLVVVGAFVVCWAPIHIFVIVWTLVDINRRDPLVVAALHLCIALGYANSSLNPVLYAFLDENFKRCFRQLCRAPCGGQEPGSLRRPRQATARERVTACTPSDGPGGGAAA
The entries below come with measured Ki values attached.
Unit nM implied. Number only.

Tell me its Ki given `Oc1ccc2c3c1O[C@H]1c4[nH]c5ccccc5c4C[C@@]4(O)[C@@H](C2)N(CC2CC2)CC[C@]314` as the entry.
0.41

# evaluate next
Tell me its Ki given `Oc1ccc2c3c1O[C@H]1c4ncc(-c5ccc(Cl)cc5)cc4C[C@@]4(O)[C@@H](C2)N(CC2CC2)CC[C@]314` as the entry.
2.2
